So I've got a bunch of binders here, and I need their pIC50 values.
Target: HLA-A*0201 (human)
Test: MHC binding assay with purified MHC molecules
Give bare numbers, as −log10 of the molar value.

INSERT INTO results (binder, resulttype, assayresult) VALUES
  ('TLTSCNTSV (modifications not checked) […]', 'pIC50', 9.54);

As a next step, examine the binder that follows.
Documented pIC50 of TLTSCNTSV (modifications not checked) [TLT(GalNAc-O-S)CNTSV] : 9.14
